# Test system: DeltatarO mutant
# PROTOCOL_TEXT: S. aureus survival, RN4220 and DeltatarO strains – OD600, teichoic acid synthesis inhibitors, primary screen (AID 463173)
# SETTINGS: S. aureus RN4220 wild type/DeltatarO growth, OD600, 18 h, screened at 18.75 µg/mL (by protocol)
The campaign covered roughly 52,000 compounds. About 4,300 (8.3%) were called active. Rule as the data show it: active = survival mostly below about 52% (no sharp cut-off); inactive = mostly above about 56%. Shown is part of a subset that was picked to be rich in actives.
Mark one answer only. Choices: active, inactive

- MOLECULE: "Cc1cccc(C)c1NC(=O)c1ccc2c(c1)nnn2C1CCCC1"
  GROUP_LABEL: "active"
- MOLECULE: "O=C(CN1C(=O)c2ccccc2Sc2ccc(C(=O)N3CCOCC3)cc21)Nc1ccc(Cl)cc1F"
  GROUP_LABEL: "inactive"
- MOLECULE: "Cc1cc(Cl)ccc1OCCSc1nnc(-c2cccs2)o1"
  GROUP_LABEL: "active"

stdin: Test call, this molecule: COc1cc(C)ccc1OCCSc1nnc(-c2ccc(C)cc2)o1
stdout: inactive

stdin: How was Cc1cc(O)c(C(c2ccccc2Cl)N2CCCCC2)c(=O)n1Cc1ccco1 (configuration not stated) classified in this test?
stdout: inactive

stdin: State the result this test recorded for Cc1cc(NC(=O)C2CCCN(S(=O)(=O)c3ccc(Br)s3)C2)ccc1Br (configuration not stated) .
stdout: inactive

stdin: Please share the test call associated with O=C(NCc1cccc(Cl)c1)c1cc2c(s1)-c1ccccc1SC2 .
stdout: inactive
